// provenance: patent US20250002563A1

Measured pIC50 values are reported for all entries that follow.
target: RBDSARS-CoV-2 (SARS-CoV-2 S protein residues 319-539, C-terminal His-tag) (SARS-CoV-2, UniProt P0DTC2 319-539)
measurement.protocol: ELISA
pIC50: −log10 of the molar value.

binder: 5p-171 (VHH) VHH: QVQLVESGGGLVQTGGSLRLSCAASGRTFSTYTMGWFRQAPGKEREFVAAITPTGYGTKSADSVKGRFIISRDNPKNTVYLQMNNLKPEDTAVYYCAARSGTITNQDQYDFHYWGQGTQVTVSS
pIC50: > 8.00
//
binder: 5p-89 (VHH) VHH: EVQLVESGGGLVQAGGSLRLSCEDSKRTGSRWPVGWFRQAPGKEREFVASISWTGSRTYYADSVKGRFTISRDNAENTVFLKMNSLKPEDTAVYYCAAAQTRVYGANWSSSNRDDYDAWGQGTQVTVSS
pIC50: 7.00 to 8.00
